# test.target: UniProt:P14416
# Sequence (P14416 1-414 isoform P14416-2): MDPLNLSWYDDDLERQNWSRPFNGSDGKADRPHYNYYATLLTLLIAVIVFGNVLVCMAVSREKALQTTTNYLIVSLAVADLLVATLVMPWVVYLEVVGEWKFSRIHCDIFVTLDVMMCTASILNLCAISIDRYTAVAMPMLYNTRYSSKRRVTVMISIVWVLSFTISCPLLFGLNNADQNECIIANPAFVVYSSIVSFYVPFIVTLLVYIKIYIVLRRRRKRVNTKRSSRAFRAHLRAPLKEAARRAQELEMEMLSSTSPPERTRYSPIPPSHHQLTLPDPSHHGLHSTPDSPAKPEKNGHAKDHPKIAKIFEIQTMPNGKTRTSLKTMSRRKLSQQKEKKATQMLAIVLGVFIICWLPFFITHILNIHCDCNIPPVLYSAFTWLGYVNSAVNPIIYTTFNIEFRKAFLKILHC
# assay.notes: radioligand binding assay, Dopamine D2S
# Method: Routine radioligand binding assays were performed using reference standards according to established methodology. IC50 values were determined by a non-linear least square regression analysis.
recorded.metric: Ki (µM)

>>> df
                                   compound  unit_abbrev  assay_result
0  Oc1ccc2c(c1O)-c1cccc3c1C(C2)NCC3 (stereo not shown)           µM           1.1

###

# test.target: UniProt:P35372
# Sequence (P35372 whole entry): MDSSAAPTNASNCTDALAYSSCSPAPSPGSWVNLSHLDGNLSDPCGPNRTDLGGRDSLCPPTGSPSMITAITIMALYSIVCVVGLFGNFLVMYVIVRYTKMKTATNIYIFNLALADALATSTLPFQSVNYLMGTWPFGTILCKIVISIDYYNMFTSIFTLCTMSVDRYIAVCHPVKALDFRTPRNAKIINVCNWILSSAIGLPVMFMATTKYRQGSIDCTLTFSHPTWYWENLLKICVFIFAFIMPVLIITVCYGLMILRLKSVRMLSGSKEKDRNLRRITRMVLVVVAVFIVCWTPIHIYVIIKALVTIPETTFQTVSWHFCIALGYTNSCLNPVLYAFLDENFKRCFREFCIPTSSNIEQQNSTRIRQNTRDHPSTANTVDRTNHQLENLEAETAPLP
recorded.metric: Ki (nM)

>>> print(df.to_string())
                                   molecule  unit_abbrev  assay_result
0  Oc1ccc2c(c1O)-c1cccc3c1C(C2)NCC3 (stereo not shown)           nM          2090

###

# test.target: Adrenergic α2A (Homo sapiens)
# Sequence (P08913 whole entry): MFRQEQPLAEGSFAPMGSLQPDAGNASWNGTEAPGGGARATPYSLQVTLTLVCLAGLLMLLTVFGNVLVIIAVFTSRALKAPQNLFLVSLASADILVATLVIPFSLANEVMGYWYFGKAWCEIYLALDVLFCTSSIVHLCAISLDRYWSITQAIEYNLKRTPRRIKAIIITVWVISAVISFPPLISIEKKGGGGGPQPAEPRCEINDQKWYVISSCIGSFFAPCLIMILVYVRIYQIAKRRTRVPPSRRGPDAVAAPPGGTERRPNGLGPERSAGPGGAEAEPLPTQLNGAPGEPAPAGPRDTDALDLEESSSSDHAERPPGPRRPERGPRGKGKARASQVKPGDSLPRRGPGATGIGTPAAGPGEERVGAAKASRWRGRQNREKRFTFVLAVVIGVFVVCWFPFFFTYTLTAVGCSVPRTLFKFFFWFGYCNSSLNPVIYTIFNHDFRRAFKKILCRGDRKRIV
# assay.notes: radioligand binding assay, Adrenergic α2A
# test.parameters: Adrenergic α2A; read-out: Ki
pKi: −log10 of the molar value.
recorded.metric: pKi

>>> df
                                   molecule  assay_result
0  Oc1ccc2c(c1O)-c1cccc3c1C(C2)NCC3 (stereo not shown)          5.84

Data provenance: patent US6506765B2
